- target or test system: T1, human TIGIT (human, UniProt Q495A1 22-244)
- T1 construct: Cell-surface form; also called huTIGIT
- T1 sequence: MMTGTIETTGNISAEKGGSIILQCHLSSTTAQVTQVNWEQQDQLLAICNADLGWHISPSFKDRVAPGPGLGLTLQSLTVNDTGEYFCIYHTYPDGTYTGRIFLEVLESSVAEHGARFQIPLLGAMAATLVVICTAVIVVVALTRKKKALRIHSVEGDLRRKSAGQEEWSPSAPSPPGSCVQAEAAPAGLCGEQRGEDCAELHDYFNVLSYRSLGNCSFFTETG
- assay name: flow cytometry on CHO-S cells expressing human TIGIT, competitor CD112-Fc-Alexa 647, at 1 ug/mL
Label scheme for % inhibition: lower than 90% is Condition not met, 90% and above is Condition met.

binder	cat
11A3 (antibody, V domains shown, Fully human XenoMouse antibody, tested as hybridoma supernatant or purified mAb) VH: QVQLVQSGAEVKKPGASVKVSCKASGYTFTSYYIHWVRQAPGQGLEWMGIINPSGGRTSYAQMFQGRVTLTRDTSTNTVYMELSSLRSEDTAVFYCAKDREEQWPVGGFDYWGQGTLVTVSS VL: DIQMTQSPSSLSASVGDRVTITCRASQNIRRYLNWYQQKPGKAPELLIYSASNLQNGVPSRFSGSGSGTDFTLTISSLQPEDFATYYCQQSYIIPPTFGQGTKVEIRR	Condition met
28B8 (antibody, V domains shown, Fully human XenoMouse antibody, tested as hybridoma supernatant or purified mAb) VH: QVQLQESGPGLVKPSETLFLTCTVSGGSVTNYYWSWIRQPAGKGLEWIGRIYTSGSTYYNPSLKSRVTMSLDTSKNQFSLRLSSVTAADTAVYYCAREGFTMVRGVMGAFDIWGQGTMVTVSS VL: DIQMTQSPSSLSASVGDRVTITCRASQSIRRYLNWYQQIPGKAPKFLIYDASSLQSGVPSRFSGSGSGTDFTLTISSLQPEDFATYYCQQSYSTPPTFGQGTKVEIKR	Condition met
66H9 (antibody, V domains shown, Fully human XenoMouse antibody, tested as hybridoma supernatant or purified mAb) VH: QVQLQESGPGLVKPSQTLSLTCTVSGGSISSVYFYWNWIRQHPGKGLEWIGYIYYSGGTYYNPSLRSRVTISVDTSKNQFSLKLNSVTAADTAVYYCARGSIAAGGGYFYYNDMDVWGQGTTVTVSS VL: EIVLTQSPDFQSVTPKEKVAITCRASQSIGSSLHWYQQKPDQSPKPLIKYVSQSFSGVPSRFSGSGSGTDFTLTINSLEAEDAATYYCHQSSSLPLTFGGGTKVEIKR	Condition not met
55G7 (antibody, V domains shown, Fully human XenoMouse antibody, tested as hybridoma supernatant or purified mAb) VH: QVQLVESGGGVVQPGRSLRLSCAASGFTFSSYGMHWVRQAPGKGLEWVALIWFDESNIYYADSVKGRFTISRDNSKNTLYLQMNSLRAEDTAVYFCARGYDLLTGYYNFDFWGLGTLVTVSA VL: QAGLTQPPSVSKGLRQTATLTCTGNTNNVGNRGAAWLQQHQGHPPKLLSYRNNNRPSGISERLSASRSGNTASLTITGLQPEDEADYYCSAWDSSLSAWVFGGGTKLTVLG	Condition not met
43B7 (antibody, V domains shown, Fully human XenoMouse antibody, tested as hybridoma supernatant or purified mAb) VH: QVQLQESGPGLVKPSQTLSLTCTVSGGSISSGGYYWSWIRQHPGKGLEWIGYIYYRGGTYYNPSLRSRVTMSVDTSKNQFSLMLSSVTAADTAVYYCARTIFGVIILDNWGQGTPVTVSS VL: DIQMTQSPSSLSASVGDRVTITCRSSQSISSYLNWYQQKPGRAPKLLIHAASSLQSGVPSRFSGSGSGTDFTLTISSLQPEDFASYCCQQSYTTPPTFGGGTKVEIKR	Condition met
39D2 (antibody, V domains shown, Fully human XenoMouse antibody, tested as hybridoma supernatant or purified mAb) VH: QVQLVQSGAEVKKPGASVKVSCKASGYTFTGYYIHWVRQAPGQGLEWMGWISPTSGATGYAQNFQGRVTMTRDTSITTAYMELSRLRSDDTAVYYCARDSNSVLYYYGMDVWGQGTTVTVSS VL: DIEMTQAPSSLSASVGDRVTITCRASQTIRRYLNWYQQKPGKAPKLLIYAASSLQNGVPSRFSGSVSGTDFTLTISSLQPEDFATYYCQQSYSTPLTFGGGTKVGIRR	Condition met
